Biological target: human PTP1B (Homo sapiens)
Construct: human PTP1B (amino acid residues 1-321); made in house; host or cells: E. coli BL21(DE3)
Sequence (P18031 1-321): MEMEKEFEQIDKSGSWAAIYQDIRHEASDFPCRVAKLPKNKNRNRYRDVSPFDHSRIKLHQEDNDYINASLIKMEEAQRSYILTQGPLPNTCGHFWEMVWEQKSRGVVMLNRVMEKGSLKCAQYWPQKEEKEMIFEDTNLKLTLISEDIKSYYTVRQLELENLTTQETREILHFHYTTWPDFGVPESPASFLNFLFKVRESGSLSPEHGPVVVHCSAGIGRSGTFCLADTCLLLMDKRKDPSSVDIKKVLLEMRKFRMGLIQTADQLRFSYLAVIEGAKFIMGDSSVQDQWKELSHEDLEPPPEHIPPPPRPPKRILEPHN
Assay: PTP1B assay, pNPP hydrolysis, assayed exactly as for PTP1
Type: biochemical
Conditions: Conc 100 uM, Table 2
Measured quantity: PTP1B Inhib PTP1B. % Inhib (%)

query: Write down the reported PTP1B Inhib PTP1B. % Inhib (system: human PTP1B (Homo sapiens)) of CCCCCNC(=O)C(Cc1ccc(OC(COO)COO)cc1)NC(=O)N1CCN(C(=O)OC(C)(C)C)CC1 (stereo not drawn)
result: 92

query: Write down the reported PTP1B Inhib PTP1B. % Inhib (system: human PTP1B (Homo sapiens)) of CCCCCNC(=O)C(Cc1ccc(OC(COO)COO)cc1)NC(=O)C(Cc1ccc2ccccc2c1)NC(=O)OC(C)(C)C (stereo not drawn)
result: 90

query: Write down the reported PTP1B Inhib PTP1B. % Inhib (system: human PTP1B (Homo sapiens)) of `CCCCCNC(=O)[C@H](Cc1ccc(OCC(=O)O)c(-c2nn[nH]n2)c1)NC(=O)[C@H](Cc1ccccc1)NC(=O)OC(C)(C)C`
result: 97

query: Write down the reported PTP1B Inhib PTP1B. % Inhib (system: human PTP1B (Homo sapiens)) of CCCCCNC(=O)C(Cc1ccc(OCCOO)c(COO)c1)NC(=O)C(Cc1ccc(O)cc1)NC(=O)OC(C)(C)C (stereo not drawn)
result: 96

query: Write down the reported PTP1B Inhib PTP1B. % Inhib (system: human PTP1B (Homo sapiens)) of CCCCCNC(=O)C(Cc1ccc(OCCOO)c(COO)c1)NC(=O)C(Cc1ccccc1)NC(=O)OC(C)(C)C (stereo not drawn) [drawing 189]
result: 69

query: Write down the reported PTP1B Inhib PTP1B. % Inhib (system: human PTP1B (Homo sapiens)) of CCCCCNC(=O)C(Cc1ccc(OC(COO)COO)cc1)NC(=O)N(Cc1ccccc1)Cc1ccccc1 (stereo not drawn)
result: 93

query: Write down the reported PTP1B Inhib PTP1B. % Inhib (system: human PTP1B (Homo sapiens)) of CCCCCNC(=O)C(Cc1ccc(OC(COO)COO)cc1)NC(=O)C(CCSC)NC(=O)OC(C)(C)C (stereo not drawn)
result: 82

query: Write down the reported PTP1B Inhib PTP1B. % Inhib (system: human PTP1B (Homo sapiens)) of CCCCCNC(=O)C(Cc1ccc(OC(COO)COO)cc1)NC(=O)C(CSCc1ccccc1)NC(=O)OC(C)(C)C (stereo not drawn)
result: 83

query: Write down the reported PTP1B Inhib PTP1B. % Inhib (system: human PTP1B (Homo sapiens)) of CCCCCNC(=O)C(Cc1ccc(OC(COO)COO)cc1)NC(=O)C(CCc1ccccc1)NC(=O)OC(C)(C)C (stereo not drawn)
result: 77
